Biological target: BA/F3-FLT3-ITD + D835Y cells (Homo sapiens, UniProt P36888, D835Y, cells depend on it, form not given)
Test: Cell proliferation assay (CellTiter-Glo), engineered BA/F3 cells
Assay type: cell-based, murine
Details: BaF3 FLT3 ITD/D835Y cells, 3d-Growth; read-out: BaF3_FLT3 ITD/D835Y 3d-Growth: IC50
Method: The FLT3 inhibitors may be assessed using the MOLM-14, Acute Myeloid Leukemia cell line that endogenously expresses FLT3 ITD or derivatives of the human FLT3 AML cell line which acquired the D835Y (activation loop) of F691L (gatekeeper) mutation after selection in escalating doses of the FLT3 Inhibitor AC220. FLT3 inhibitors may also be assessed using cells that are engineered to express mutant FLT3. […] This inhibition is measured as a function of compound concentration to asses IC50 values. […]
Answer each item with its documented GI50.

In: Reported GI50 for O=C(NC1CCNC1)c1cccc(-c2cnc3[nH]c(-c4ccccc4)cc3c2)n1 (stereo not shown) : what is it?
Out: 0.0001 to 10 µM

In: Please give the result for N[C@H]1CCN(C(=O)c2cccc(-c3cnc4[nH]c(-c5ccccc5)cc4c3)n2)C1 too.
Out: 0.0001 to 10 µM

In: Please give the result for N[C@H]1CCN(C(=O)c2csc(-c3cnc4[nH]c(-c5ccccc5)cc4c3)n2)C1 too.
Out: 50 to 100 µM

In: Please give the result for CNC1CCN(C(=O)c2cccc(-c3cnc4[nH]c(-c5cn(C)nc5C)cc4c3)n2)C1 (stereo not shown) too.
Out: 0.0001 to 10 µM

Attribution: patent US9938273B2
